Can you tell me Binding to 1 nM KDR, % for the items I'm about to list?
# Target or test system: T1, human vascular endothelial growth factor receptor-2 Fc chimera (KDR-Fc) (human, UniProt P35968 20-764)
# T1 construct: range 1-764; also called human VEGFR-2; not shown: human IgG1 Fc
# T1 sequence (P35968 20-764 limits assumed, change not shown, form in doubt): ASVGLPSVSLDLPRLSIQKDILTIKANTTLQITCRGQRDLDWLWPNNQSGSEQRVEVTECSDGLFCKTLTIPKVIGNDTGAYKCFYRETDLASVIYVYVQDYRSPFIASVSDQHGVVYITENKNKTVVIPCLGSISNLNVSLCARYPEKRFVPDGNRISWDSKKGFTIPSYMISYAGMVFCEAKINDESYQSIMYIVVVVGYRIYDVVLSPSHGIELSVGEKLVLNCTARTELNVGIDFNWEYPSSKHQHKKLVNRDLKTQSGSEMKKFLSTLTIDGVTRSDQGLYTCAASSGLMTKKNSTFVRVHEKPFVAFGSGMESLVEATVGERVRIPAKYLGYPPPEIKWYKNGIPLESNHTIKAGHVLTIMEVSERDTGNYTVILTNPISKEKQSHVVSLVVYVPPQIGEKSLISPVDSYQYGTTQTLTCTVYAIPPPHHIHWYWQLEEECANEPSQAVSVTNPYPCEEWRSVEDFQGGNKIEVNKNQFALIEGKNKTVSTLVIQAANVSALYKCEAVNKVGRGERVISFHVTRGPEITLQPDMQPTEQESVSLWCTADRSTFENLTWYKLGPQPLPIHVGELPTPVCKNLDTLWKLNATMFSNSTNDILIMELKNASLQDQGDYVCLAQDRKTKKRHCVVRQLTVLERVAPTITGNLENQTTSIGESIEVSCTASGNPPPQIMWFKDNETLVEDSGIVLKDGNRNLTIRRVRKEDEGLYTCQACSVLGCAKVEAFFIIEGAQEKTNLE
# Measurement description: radioactive equilibrium binding, 1 nM KDR-Fc, % of input
In your response, put the unit directly after the numeric value.

Reported Binding to 1 nM KDR, % of 2′Del B5 PR4 (designed binder) EVVAATPTSLLISWRHPHFPTRYYRITYGETGGNSPVQEFTVPLQPPTATISGLKPGVDYTITVYAVTAGRHDHELIIPISINYRT : 33%

Reported Binding to 1 nM KDR, % of 2′Del C6 PR4 (designed binder) EVVAATPTSLLISWRHPHFPTRYYRITYGETGGNSPVQEFTVPLQPPTATISGLKPGVDYTITVYAVTMGFMAHELMVPISINYRT : 34%

Reported Binding to 1 nM KDR, % of 2′Del C5 PR4 (designed binder) EVVAATPTSLLISWRHPHFPTRYYRITYGETGGNSPVQEFTVPLQPPTATISGLKPGVDYTITVYAVTPGHNDHELMVPISINYRT : 26%

Reported Binding to 1 nM KDR, % of 3′D9 PR4 (designed binder) EVVAATPTSLLISWRHPHFPTRYYRITYGETGGNSPVQEFTVPLQPPTATISGLKPGVDYTITVYAVTGYYNDRELLTPISINYRT : 30%

Reported Binding to 1 nM KDR, % of 3′B4 PR4 (designed binder) EVVAATPTSLLISWRHPHFPTRYYRITYGETGGNSPVQEFTVPLQPPTATISGLKPGVDYTITVYAVTVAWNGHELMTPISINYRT : 38%

Reported Binding to 1 nM KDR, % of 3′H11 PR4 (designed binder) EVVAATPTSLLISWRHPHFPTRYYRITYGETGGNSPVQEFTVPLQPPTATISGLKPGVDYTITVYAVTLAHNGNELLTPISINYRT : 39%

Reported Binding to 1 nM KDR, % of 2′DelA5 PR4 (designed binder) EVVAATPTSLLISWRHPHFPTRYYRITYGETGGNSPVQEFTVPLQPPTATISGLKPGVDYTITVYAVTWNQNGQELFTPISINYRT : 20%

Reported Binding to 1 nM KDR, % of 4′H7 PR4 (designed binder) EVVAATPTSLLISWRHPHFPTRYYRITYGETGGNSPVQEFTVPLQPPTATISGLKPGVDYTITVYAVTLAHNDHELLTPISINYRT : 29%

Reported Binding to 1 nM KDR, % of 3′B2 PR4 (designed binder) EVVAATPTSLLISWRHPHFPTRYYRITYGETGGNSPVQEFTVPLQPPTATISGLKPGVDYTITVYAVTVGRNDRELLTPISINYRT : 29%
